Molecular target: human 11b-hsd-1 (Homo sapiens)
Assay: Inhibition constant Ki of human 11b-hsd-1 (3H-cortisone to 3H-cortisol conversion, HPLC)
Type: biochemical
Settings: apparent Ki; read-out: Ki app
# Ki values compiled below
endpoint: Ki (nM)

CC(C)[C@H]1CCN[C@@H]1C(=O)NC1C2CC3CC(C2)CC1C3 (stereo partly drawn) | 11
CC(C)CN1CCOC[C@@H]1C(=O)NC1Cc2ccccc2C1 | 12.8
C[C@@H](NC(=O)[C@H]1COCCN1Cc1ccccc1)c1ccc(Cl)cc1 | 8.96
Cc1ccccc1CNC(=O)[C@H]1CCCN1Cc1ccccc1 | 16
CC(C)CN1CCC[C@@H]1C(=O)NCc1ccc(Cl)cc1 | 5.9
Cc1ccccc1CNC(=O)[C@H]1CCCN1CC(C)C | 7

----------
Target: human 11b-hsd-1 (Homo sapiens, UniProt P28845)
Sequence (P28845 whole entry): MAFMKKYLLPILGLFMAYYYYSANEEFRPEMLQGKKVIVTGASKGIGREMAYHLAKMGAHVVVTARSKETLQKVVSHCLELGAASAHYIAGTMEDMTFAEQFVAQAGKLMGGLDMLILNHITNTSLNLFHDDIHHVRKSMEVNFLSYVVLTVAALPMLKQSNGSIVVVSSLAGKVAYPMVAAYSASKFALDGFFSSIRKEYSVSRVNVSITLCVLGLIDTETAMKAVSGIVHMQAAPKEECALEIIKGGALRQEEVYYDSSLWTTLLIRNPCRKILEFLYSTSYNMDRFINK
Assay: Inhibition constant Ki of human 11b-hsd-1 (3H-cortisone to 3H-cortisol conversion, HPLC)
Assay type: biochemical
Details: compound at 0.1 μM
endpoint: inhibition at 0.1 µM (%)

O=C(NC1C2CC3CC(C2)CC1C3)[C@H]1COCCN1Cc1ccccn1 (stereo partly shown) [Example 67] | 100
CC(C)OCCN1CCC[C@@H]1C(=O)NC1CCCCC1 [Example 96] | 84
CC(C)CN1CCOC[C@@H]1C(=O)N(C)Cc1ccc(F)cc1 [Example 37] | 100
O=C(NCC1(O)CCCCCC1)[C@H]1CCCN1CC1CCCC1 [Example 68] | 93.5
O=C(NC1C2CC3CC(C2)CC1C3)[C@H]1COCCN1CC1CCCC1 (stereo partly shown) [Example 63] | 100
CC(C)CN1CCOC[C@@H]1C(=O)NCc1ccc(F)cc1 [Example 34] | 79
CCC(C)N1CCC[C@@H]1C(=O)NC1CCCCC1 (stereo partly shown) [Example 105] | 82
CCN1C[C@H](O)C[C@@H]1C(=O)NC1C2CC3CC(C2)CC1C3 (stereo partly shown) [Example 24] | 100
O=C(NC12CC3CC(CC(C3)C1)C2)C1COCCN1CCC1CCOCC1 (stereo not shown) [Example 185] | 91.3
CCCN1CCCC1(C)C(=O)NC1CCCCC1 (stereo not shown) [Example 60] | 79
CC1(C)CC(NC(=O)C2COCCN2CC2CCCCC2)CC(C)(C)C1 (stereo not shown) [Example 188] | 100
O=C(NC1C2CC3CC(C2)CC1C3)[C@H]1CCCN1CCN1CCOCC1 (stereo partly shown) [Example 128] | 100
CCCN1CCC[C@H](C(=O)NC2C3CC4CC(C3)CC2C4)C1 (stereo partly shown) [Example 125] | 81

----------
Form field: log10 Ki (one value per entry).
Target: UniProt P28845
Test: Inhibition constant Ki of human 11b-hsd-1 (3H-cortisone to 3H-cortisol conversion, HPLC)
Format: biochemical
Details: apparent Ki; read-out: Ki app
endpoint: log10 Ki (log10 of the value in nM)

CC(C)CN1CCC[C@@H]1C(=O)N[C@@H]1CCc2ccccc21 [Example 291] | 0.00
CC(C)CN1CCOC[C@@H]1C(=O)N[C@H](C)c1ccc(Cl)cc1 [Example 317] | 0.94
O=C(NCc1ccc(F)cc1)[C@H]1CCCN1Cc1ccc(Cl)cc1 [Example 235] | 1.40
O=C(NC1C2CC3CC(C2)CC1C3)[C@H]1NCC[C@@H]1c1ccc(Cl)cc1 (some centres unmarked) [Example 367] | 0.88
O=C(NC1C2CC3CC(C2)CC1C3)[C@@H]1C[C@H](Oc2ccc(Cl)cc2)CN1 (some centres unmarked) [Example 339] | 0.00
CCCN1CCOC[C@@H]1C(=O)NCC1CCCCC1 [Example 335] | 0.84
Cc1ccccc1CNC(=O)[C@H]1CCCN1Cc1ccc(Cl)cc1 [Example 268] | 1.00
CC[C@H]1CCN[C@@H]1C(=O)NC1C2CC3CC(C2)CC1C3 (some centres unmarked) [Example 345] | 1.43
O=C(NC1C2CC3CC(C2)CC1C3)[C@@H]1NCC[C@H]1c1ccccc1 (some centres unmarked) [Example 340] | 0.72
COc1ccccc1CNC(=O)[C@H]1CCCN1Cc1ccccc1 [Example 245] | 1.23
Cc1ccccc1CNC(=O)[C@H]1CCCN1Cc1ccc(C#N)cc1 [Example 252] | 1.72
